SUBJECT OF TEST: Mouse TLR7 (Mus musculus, UniProt P58681)
Construct: endogenous in cells; host or cells: female BALB/c mice, in vivo
Sequence (P58681 27-1050): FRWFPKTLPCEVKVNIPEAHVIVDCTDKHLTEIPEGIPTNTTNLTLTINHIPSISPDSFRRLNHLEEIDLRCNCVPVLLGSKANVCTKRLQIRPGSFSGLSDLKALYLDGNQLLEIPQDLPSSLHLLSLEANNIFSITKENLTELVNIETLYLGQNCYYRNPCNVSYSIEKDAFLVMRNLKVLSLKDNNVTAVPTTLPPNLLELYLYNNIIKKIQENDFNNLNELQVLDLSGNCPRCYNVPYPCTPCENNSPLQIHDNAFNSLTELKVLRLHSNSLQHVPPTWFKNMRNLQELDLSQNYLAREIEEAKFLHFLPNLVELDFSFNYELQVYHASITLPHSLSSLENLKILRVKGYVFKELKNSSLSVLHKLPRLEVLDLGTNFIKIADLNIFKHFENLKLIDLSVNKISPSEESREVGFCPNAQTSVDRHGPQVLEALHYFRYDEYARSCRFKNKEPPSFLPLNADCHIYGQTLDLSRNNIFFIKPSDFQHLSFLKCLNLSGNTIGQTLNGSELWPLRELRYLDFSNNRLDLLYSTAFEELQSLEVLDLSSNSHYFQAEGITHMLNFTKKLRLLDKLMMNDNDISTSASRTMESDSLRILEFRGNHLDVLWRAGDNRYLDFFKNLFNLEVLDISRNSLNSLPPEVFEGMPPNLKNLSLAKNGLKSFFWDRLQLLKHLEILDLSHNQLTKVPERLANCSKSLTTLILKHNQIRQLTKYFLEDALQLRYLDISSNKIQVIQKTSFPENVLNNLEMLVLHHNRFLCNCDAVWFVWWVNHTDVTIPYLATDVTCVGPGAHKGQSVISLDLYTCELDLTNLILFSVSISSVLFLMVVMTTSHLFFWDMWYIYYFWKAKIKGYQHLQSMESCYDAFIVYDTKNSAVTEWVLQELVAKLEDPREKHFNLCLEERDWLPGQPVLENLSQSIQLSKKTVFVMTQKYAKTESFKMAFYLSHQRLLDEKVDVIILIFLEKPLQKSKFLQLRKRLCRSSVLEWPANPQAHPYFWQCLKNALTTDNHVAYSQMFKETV
ASSAY TEXT: Short-term in vivo (STIV) assay: plasma IL-6 after s.c. R848
DETAILS: time point 13 hr; dose 300 mg/kg oral
Answer each item with its documented % Suppression vs. Vehicle.
Give bare numbers, in %.

// known answers, use as guide
COc1ccc([C@@H]2C[C@H](C(F)(F)F)n3nc(C4CCNCC4)cc3N2)cc1OC | 50
COc1ccc([C@H]2C[C@@H](C(F)F)n3nc(-c4ccc(C(=O)N5CCNCC5)cc4)cc3N2)cc1OC | 90
COc1ccc([C@@H]2C[C@H](C(F)F)n3nc(-c4ccc(C(=O)N5CCNCC5)cc4)cc3N2)cc1OC | 91

Now let's try a different one.
Need % Suppression vs. Vehicle of `COc1ccc([C@@H]2C[C@H](C(F)(F)F)n3nc(-c4ccc(C(=O)N5CCNCC5)cc4)cc3N2)cc1OC` , thanks. 90
